# Tested on: Saccharomyces cerevisiae
# run description: protein stability index of tFT-peptide fusion (C-terminal peptide) (PSI (0-1 scale)); higher = more stable (slower turnover)
# particulars: genetic background: wild type; temperature: 30 C
Would you kindly list protein stability index for each of these sequences?
Reply with just the number.

Task: What protein stability index value was documented for this sequence, QSLYKDATSHWL [GYP1 C-terminal 12 aa] ?
Output: 0.682

Task: What protein stability index value was documented for this sequence, VSKELRSRDLLD [RPE1 C-terminal 12 aa] ?
Output: 0.699

Task: What protein stability index value was documented for this sequence, LDGSREVGAAKS [UME1 C-terminal 12 aa] ?
Output: 0.711

Task: What protein stability index value was documented for this sequence, FDTLIVHHFSSE [KHA1 C-terminal 12 aa] ?
Output: 0.682

Task: What protein stability index value was documented for this sequence, EIKEMLVTLINK [SRL2 C-terminal 12 aa] ?
Output: 0.652

Task: What protein stability index value was documented for this sequence, KHDVLSTLPHNN [SKO1 C-terminal 12 aa] ?
Output: 0.687

Task: What protein stability index value was documented for this sequence, RRSKKWYSFIFN [SCO2 C-terminal 12 aa] ?
Output: 0.731

Task: What protein stability index value was documented for this sequence, AAISFKEAARTD [HYP2 C-terminal 12 aa] ?
Output: 0.725

Task: What protein stability index value was documented for this sequence, LELEFNSHFELK [HNT3 C-terminal 12 aa] ?
Output: 0.7

Task: What protein stability index value was documented for this sequence, ETIAEEMDSVHT [YAL064W-B C-terminal 12 aa] ?
Output: 0.662

Task: What protein stability index value was documented for this sequence, NVAAAEASKKGN [YET1 C-terminal 12 aa] ?
Output: 0.685

Task: What protein stability index value was documented for this sequence, YCLFEKPTETTN [ALG9 C-terminal 12 aa] ?
Output: 0.695

Task: What protein stability index value was documented for this sequence, CKTLNYARPQSN [BNA1 C-terminal 12 aa] ?
Output: 0.727

Task: What protein stability index value was documented for this sequence, WEHLHSGFSKNK [ELG1 C-terminal 12 aa] ?
Output: 0.716

Task: What protein stability index value was documented for this sequence, QEGTFKRLALPA [THI11 C-terminal 12 aa] ?
Output: 0.654

Task: What protein stability index value was documented for this sequence, GGKDKMVRLWTH [RSA4 C-terminal 12 aa] ?
Output: 0.698

Task: What protein stability index value was documented for this sequence, FAFVVVKQEFIH [BYE1 C-terminal 12 aa] ?
Output: 0.519

Task: What protein stability index value was documented for this sequence, TVGTGLITRIIE [TUF1 C-terminal 12 aa] ?
Output: 0.695
